# Tested on: MS2 coat protein
# method_notes: apparent KD of MS2 coat protein; designed switch direction (-1 OFF switch, 1 ON switch): -1; higher = weaker reporter binding
# condition_parameters: input ligand: none
Measured apparent KD of MS2 coat protein accompanies every entry in the list below.
Provide only the numeric value, understood in nM.

>>> result_number("CUGUACUGAGGAUAUACAUGAGGAUCACCCAUGUGAUUCAGUGCACGCGUACGUGUACGUAGAAGGCAGUACAG [Mat - Exclusion 3 - Eli Mod - D37] (Eterna round: R97, puzzle: Exclusion 3)")
42.5
>>> result_number("CUUAUGUGAGGAUAUGCCUGGCCGUGAGGCCAAAUUUAUAAGCAGAAGGCACAUGAGGAUCACCCAUGUGCGGG [jl-ex4-4.69 ViennaUCT mod] (Eterna round: R97, puzzle: Exclusion 4)")
317

query: For the sequence shown here, GGGUGACAGUUAGGAUAUCUUAGCACGCCGUAGAGAGAAGGGACAUGAGGAUCACCCAUGUUGUAGUGCCUCCAGCACUGCUAG [Esrasoce] (Eterna round: R96, puzzle: Exclusion NG 1) , give the reported apparent KD of MS2 coat protein.
result: 66.4

* * *

Measured apparent KD of K4 kissing-loop reporter accompanies every entry in the list below.
# Test system: K4 kissing-loop RNA reporter;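 also: bound reporter read as fluorescence of individual clusters on recovered sequencing chips by microscopy, with normalized cluster intensities fitted with a binding model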
# method_notes: apparent KD of K4 kissing-loop reporter; higher = weaker reporter binding
# condition_parameters: Eterna round: R107; input ligand: theophylline 20 uM
Provide only the numeric value, understood in µM.

// worked examples, apparent KD of K4 kissing-loop reporter included
>>> result_number("GCCUAGUGAUGUUGGGUAAUUUAAACCGGGCGAGGACCGGUACGGCCGCCACUCGGAAACACAACAAAAUUUAAUUUAAUUUAAA [Exclusion - Trytophan A]")
0.204
>>> result_number("AAAGUUGAUGAGUUGGGUAUGUGUUCCGAAGGAGCGAGAAUUAUCUCAGGUAGGUCGCGGAACAUGAGUGAUGUUCAUGUAUAAA [KL-XArg-A7 #analogue]")
0.423

Here is another sequence to look at.
query: For the sequence shown here, GAAAGAAAGAAUGAUACCAGACACCCGAGUGAUGUUCGGAGCAGAGUGAUGUUCUUAUAAGUCCCUUGGCAGCAUAAAAGAAAAG [whbob_SS_Theo_B_sa82] , give the reported apparent KD of K4 kissing-loop reporter.
result: 0.186

* * *

Measured apparent KD of MS2 coat protein accompanies every entry in the list below.
# System: MS2 coat protein
# method_notes: apparent KD of MS2 coat protein, switch ON state; designed switch direction (-1 OFF switch, 1 ON switch): -1; higher = weaker reporter binding
# condition_parameters: FMN input: 0 or 200 uM; Eterna round: R93 (includes R88 designs)

// worked examples, apparent KD of MS2 coat protein included
>>> result("GAAAAACAUGAGGAUCACCCAUGUAAGGAUAUGCUGAAAAACACGGAAAAACGUGACAGCAGAAGGUACAAAAG [Mat - Exclusion 1 - Eli mod - D94]")
"18.3 nM"
>>> result("AAAACGGUAGGAUAUACAAUUGGGAACUAGACCGAAAAAAAACAUGAGGAUCACCCAUGUAGAAGGGCCAAAAA [Ex2 Malc#11]")
"47.8 nM"
>>> result("AUAAAGUGAGGAUAUCGAAGACUGUCGAAAAGACAGUCGAACGAGAAGGCACAUGAGGAUCACCCAUGUGAGGG [Mat - Exaclusion 4 - Eli mod - D68]")
"79.7 nM"

Here is another sequence to look at.
query: For the sequence shown here, AAAAAACAUGAGGAUCACCCAUGUAAGGAUAUGCAAAAAAAAAAAAUAAAAAAAAAAAGCAGAAGGUACAUAGA [Starry Exclusion 1.7 (wbt round 1 mod)] , give the reported apparent KD of MS2 coat protein.
result: 36.6 nM
